Target: neutrophil elastase (Homo sapiens (Human), UniProt P08246)
Sequence (P08246 30-247): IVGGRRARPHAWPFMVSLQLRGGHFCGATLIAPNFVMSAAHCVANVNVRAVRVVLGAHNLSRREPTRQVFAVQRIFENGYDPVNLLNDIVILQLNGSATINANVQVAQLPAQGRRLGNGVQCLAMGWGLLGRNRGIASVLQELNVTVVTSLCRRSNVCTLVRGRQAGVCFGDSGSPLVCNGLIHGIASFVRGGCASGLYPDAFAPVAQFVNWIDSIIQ
Assay: Human Neutrophil Elastase Assay
Conditions: substrate MeOSuc-Ala-Ala-Pro-Val-AMC
Entries annotated with measured pIC50
Please express pIC50 as -log10 of the molar concentration.

Past entries and their recorded results:
# compound, assay-system, pIC50
records = [
    ("CC(=O)C1=C(C)N(c2cccc(C(F)(F)F)c2)C(=O)N(C)C1c1ccc(C#N)cc1C(=O)N1CCC(O)CC1 (stereo not shown)", "neutrophil elastase (Homo sapiens (Human), UniProt P08246)", 8.33),
    ("CC(=O)C1=C(C)N(c2cccc(C(F)(F)F)c2)C(=O)N(C)C1c1ccc(C#N)cc1C(=O)O (stereo not shown) [Intermediate 6]", "neutrophil elastase (Homo sapiens (Human), UniProt P08246)", 8.41),
]

Now examine the next entry.
In plain terms, CC(=O)C1=C(C)N(c2cccc(C(F)(F)F)c2)C(=O)N(C)C1c1ccc(C#N)cc1-c1ccncc1 (stereo not shown) has a documented pIC50 of 8.89
